Test: solubility of Drug 4 polymorphs in water
Assay type: physicochemical
Conditions: Drug 4 mesylate polymorph, read-out: solubility
Quantity Measured: solubility
Answers without a unit are incomplete; give the number and then its unit.

Task item: Name the reported solubility value associated with the molecule C#Cc1cccc(Nc2ncnc3cc(OCCOC)c(OCCOC)cc23)c1 [“C” form]
Reply: 28 µg/mL

----------
Experiment: solubility of sertraline forms
Assay type: physicochemical
Conditions: aqueous solution, aqueous buffer; sertraline forms, pH 3, expressed as the free base; read-out: solubility
Counter-ions that a name gives are not always drawn.
Quantity Measured: solubility (µg/mL)
# unit: µg/mL | format: bare number

Task item: Name the reported solubility value associated with the compound CN[C@H]1CC[C@@H](c2ccc(Cl)c(Cl)c2)c2ccccc21 [Drug 5, sertraline HCl]
Reply: 3000
